Tested on: KM12 colon
Experiment: NCI-60 one-dose screen, 48 h (100 = growth as untreated, 0 = no growth, -100 = all killed)
Settings: 10 µM unless noted
Description: Growth inhibition of the KM12 human tumor cell line is measured as a screen for anti-cancer activity. Cells are grown in 96 well plates and exposed to the test compound for 48 hours. Compounds are tested at a single concentration, which is 10^-5 M for most compounds. The reported endpoint is percent growth (GI% or GIPRCNT), where numbers from 0 - 100% represent growth inhibition, and numbers from -100% - 0 represent cell death. For example, a value of 40 represents 60% growth inhibition. […]
Compounds without any hit were thinned out: in the full panel of roughly 83,000, 20% have a hit. The source made the active and inactive calls. How the source made its calls: active means growth percent below 10; inactive means the rest.
recordedEndpoint: growth

C[C@]12CC[C@H](O)CC1=CC[C@@H]1[C@@H]2CC[C@]2(C)C(=O)CC[C@@H]12 :: 97.1% (inactive)
CC1=C2C(=O)[C@H]3[C@@H](CC=C4C[C@@H](O)CC[C@@]43C)[C@@H]2CC[C@]12O[C@@H]1C[C@H](C)CN[C@H]1[C@H]2C :: 112% (inactive)
Oc1cc[c]([Hg][Cl])cc1 :: 97.4% (inactive)
CCC(=O)OC1CCn2c1nc1c2C(=O)C(C)=C(N2CC2)C1=O (configuration not stated) :: -35.1% (active)
COc1ccc(OC)c(/C=C/[N+](=O)[O-])c1 :: 11.7% (inactive)
CC[C@@]1(O)C(=O)OCc2c1cc1n(c2=O)Cc2cc3ccccc3nc2-1 :: -42.1% (active)
CCOC(=O)C(NC(=O)C(Cc1ccc(N(CCCl)CCCl)cc1)NC(C)=O)C(C)C (configuration not stated) :: 94.8% (inactive)
CC[n+]1c(-c2ccccc2)c2cc(N)ccc2c2ccc(N)cc21 :: 7.69% (active)
C[C@H]1CCC/C=C/[C@@H]2C[C@H](O)C[C@H]2[C@H](O)/C=C/C(=O)O1 :: -59.8% (active)
CC[C@@]1(O)C[C@H](OC2CC(N(C)C)C(O)C(C)O2)c2c(O)c3c(c(O)c2[C@H]1OC1CC(N(C)C)C(O)C(C)O1)C(=O)c1cccc(O)c1C3=O (some centres not stated) :: -50.3% (active)
CC[C@](O)(C(=O)O)c1cc2n(c(=O)c1CO)Cc1cc3ccccc3nc1-2 :: -29.9% (active)
COC1=C(C)C(=O)C2=C(C1=O)C(CO)N1C(C#N)C3CC4C(C1C2N1CCOC41)N3C (configuration not stated) :: -60.8% (active)

###

System: OVCAR-8 ovarian
Assay: NCI-60 one-dose screen, 48 h (100 = growth as untreated, 0 = no growth, -100 = all killed)
Conditions: 10 µM
Compounds without any hit were thinned out: in the full panel of roughly 83,000, 20% have a hit.
growth for assorted compounds
recordedEndpoint: growth (%)

Cc1ccc(C(=O)OC(C(=O)O)C(OC(=O)c2ccc(C)cc2)C(=O)O)cc1 (stereo unspecified) (tested in a mixture with another compound) :: 61.4
Oc1cc[c]([Hg][Cl])cc1 :: 105
CC1=C2C(=O)[C@H]3[C@@H](CC=C4C[C@@H](O)CC[C@@]43C)[C@@H]2CC[C@]12O[C@@H]1C[C@H](C)CN[C@H]1[C@H]2C :: 89.3
COc1cccc2c1cc([N+](=O)[O-])c1c(C(=O)O)cc3c(c12)OCO3 :: 55.2
CCC(=O)OC1CCn2c1nc1c2C(=O)C(C)=C(N2CC2)C1=O (stereo unspecified) :: 3.32
O=C1c2ccccc2C(=O)C(Cl)C1Cl (stereo unspecified) :: 91.9
COc1ccc(OC)c(/C=C/[N+](=O)[O-])c1 :: 11.8
NCCc1ccc(OCc2ccccc2)c(OCc2ccccc2)c1 :: 79.3
S=C(SSC(=S)N1CCCCC1)N1CCCCC1 :: 92.4
CCCCCCCCCCCC1CCCC(C)N1 (stereo unspecified) :: 67.3
CC[n+]1c(-c2ccccc2)c2cc(N)ccc2c2ccc(N)cc21 :: 18.6

###

Test system: HCT-15 colon
Experiment: NCI-60 one-dose screen, 48 h
Settings: 10 µM unless noted
Compounds without any hit were thinned out: in the full panel of roughly 83,000, 20% have a hit. Active and inactive are the calls of the source. Rule for the calls: active = growth percent below 10; inactive = the rest.
Outcome codes: 1 (yes) (active), 0 (no) (inactive)

CN1CCN(c2ccc([N+](=O)[O-])c3no[n+]([O-])c23)CC1 :: 1 (yes)
CO[C@H](/C(C)=C/C=C/C(C)=C/c1coc(C)n1)[C@H](C)[C@H]1C[C@@H](O)[C@@]2(C)O[C@H]2/C=C/[C@@H](C)[C@@H]2C[C@@H](CC(=O)O2)C[C@H]2O[C@@H]2C(=O)O1 :: 1 (yes)
CC1=C(CO)C2=C(C)C3(CC3)[C@@](C)(O)C(=O)C2=C1 :: 1 (yes)
CC[C@](O)(C(=O)O)c1cc2n(c(=O)c1CO)Cc1cc3ccccc3nc1-2 :: 1 (yes)
CC[C@@]1(O)C[C@H](OC2CC(N(C)C)C(O)C(C)O2)c2c(O)c3c(c(O)c2[C@H]1OC1CC(N(C)C)C(O)C(C)O1)C(=O)c1cccc(O)c1C3=O (stereo partly drawn) :: 1 (yes)
C[C@]12CC[C@H](O)CC1=CC[C@@H]1[C@@H]2CC[C@]2(C)C(=O)CC[C@@H]12 :: 0 (no)
CCC(=O)OC1CCn2c1nc1c2C(=O)C(C)=C(N2CC2)C1=O (stereo not drawn) :: 1 (yes)
CC[C@@]1(O)C(=O)OCc2c1cc1n(c2=O)Cc2cc3ccccc3nc2-1 :: 1 (yes)
Cc1c(N)nc([C@H](CC(N)=O)NC[C@H](N)C(N)=O)nc1C(=O)N[C@H](C(=O)N[C@H](C)[C@@H](O)[C@H](C)C(=O)N[C@H](C(=O)NCCc1nc(-c2nc(C(=O)NCCC[S+](C)C)cs2)cs1)[C@@H](C)O)C(OC1OC(CO)C(O)C(O)C1OC1OC(CO)C(O)C(OC(N)=O)C1O)c1cnc[nH]1 (stereo partly drawn) :: 0 (no)
CCOC(=O)C(NC(=O)C(Cc1ccc(N(CCCl)CCCl)cc1)NC(C)=O)C(C)C (stereo not drawn) :: 0 (no)
Oc1cc[c]([Hg][Cl])cc1 :: 0 (no)
C[C@H]1CCC/C=C/[C@@H]2C[C@H](O)C[C@H]2[C@H](O)/C=C/C(=O)O1 :: 1 (yes)
CC[C@@]1(O)C[C@H](OC2CC(N(C)C)C(OC3CC(O)C(OC4CCC(=O)C(C)O4)C(C)O3)C(C)O2)c2c(cc3c(c2O)C(=O)c2c(O)ccc(O)c2C3=O)[C@H]1C(=O)OC (stereo partly drawn) :: 1 (yes)

###

Tested on: SNB-19 CNS
Assay: NCI-60 one-dose screen, 48 h
Conditions: 10 µM unless noted
The panel holds about 83,000 compounds, 20% with a hit somewhere; the sample as a whole holds those more often. Active and inactive are the calls of the source. How the source made its calls: active means growth percent below 10; inactive means the rest.
Outcome codes: 1 = active, -1 = inactive

COC1CC(CC2CCC(C)C(C(C)C(=O)O)O2)OC2(OC(C)(C3CCC(C)(C4OC(C5OC(O)(CO)C(C)CC5C)CC4C)O3)CC2C)C1C (stereo not given) :: 1
CC[C@@]1(O)C(=O)OCc2c1cc1n(c2=O)Cc2cc3ccccc3nc2-1 :: 1
CC1=C(CO)C2=C(C)C3(CC3)[C@@](C)(O)C(=O)C2=C1 :: -1
NCCc1ccc(OCc2ccccc2)c(OCc2ccccc2)c1 :: -1
COc1ccc(OC)c(/C=C/[N+](=O)[O-])c1 :: -1
CCCCCCCCCCCC1CCCC(C)N1 (stereo not given) :: -1
CC[C@](O)(C(=O)O)c1cc2n(c(=O)c1CO)Cc1cc3ccccc3nc1-2 :: 1
CCC(=O)OC1CCn2c1nc1c2C(=O)C(C)=C(N2CC2)C1=O (stereo not given) :: 1
CC[n+]1c(-c2ccccc2)c2cc(N)ccc2c2ccc(N)cc21 :: 1
C[C@]12CC[C@H](O)CC1=CC[C@@H]1[C@@H]2CC[C@]2(C)C(=O)CC[C@@H]12 :: -1

###

System: NCI-H23 lung
Assay: NCI-60 one-dose screen, 48 h (100 = growth as untreated, 0 = no growth, -100 = all killed)
Settings: 10 µM unless noted
The panel holds about 83,000 compounds, 20% with a hit somewhere; the sample as a whole holds those more often.
Listed below: growth values for each entry.
recordedEndpoint: growth (%)

COC1CC(CC2CCC(C)C(C(C)C(=O)O)O2)OC2(OC(C)(C3CCC(C)(C4OC(C5OC(O)(CO)C(C)CC5C)CC4C)O3)CC2C)C1C (centres undefined) :: 9.19
CC[n+]1c(-c2ccccc2)c2cc(N)ccc2c2ccc(N)cc21 :: -9.43
CC[C@](O)(C(=O)O)c1cc2n(c(=O)c1CO)Cc1cc3ccccc3nc1-2 :: -22.8
CCOC(=O)C(NC(=O)C(Cc1ccc(N(CCCl)CCCl)cc1)NC(C)=O)C(C)C (centres undefined) :: 81
